Ref: patent US12180207B2

# assay.system: recombinant human FGFR2 cytoplasmic domain (amino acids 403-822) (Homo sapiens (Human), UniProt P21802)
# Sequence (P21802 402-821): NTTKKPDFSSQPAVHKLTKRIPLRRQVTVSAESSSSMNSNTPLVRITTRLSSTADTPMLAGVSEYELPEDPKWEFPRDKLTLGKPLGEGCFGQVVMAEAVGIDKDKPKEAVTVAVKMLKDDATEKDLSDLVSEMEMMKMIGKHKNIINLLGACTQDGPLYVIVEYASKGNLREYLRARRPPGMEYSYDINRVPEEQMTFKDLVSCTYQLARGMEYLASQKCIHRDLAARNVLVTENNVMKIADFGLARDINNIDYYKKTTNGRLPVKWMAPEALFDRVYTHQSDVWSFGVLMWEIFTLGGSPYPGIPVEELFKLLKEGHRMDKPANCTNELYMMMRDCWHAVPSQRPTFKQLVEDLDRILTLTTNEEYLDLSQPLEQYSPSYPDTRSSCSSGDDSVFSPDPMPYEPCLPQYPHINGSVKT
# protocol: FGFR2 enzyme activity assay (LanthaScreen TR-FRET)
# Assay type: biochemical
# condition.set: 15 μM ATP, 20 min incubation at 22° C., average of multiple determinations if made, read-out: FGFR2 Enz FRET IC50
property: IC50 (nM)
Hi! Could you send only the number? It should be in nM, unit omitted.

stdin: Could you tell me which IC50 is on file for CC#CC(=O)N1CC(F)(C(=O)N2CCC(n3ncc(-c4cc(OC)c5c(C#N)cnn5c4)c3C)CC2)C1 [Example 156] ?
stdout: 84

stdin: Could you tell me which IC50 is on file for C=CC(=O)N1CC(OC)(C(=O)N2CCC(n3cc(-c4cc(OC)c5c(Cl)cnn5c4)cn3)CC2)C1 [Example 124] ?
stdout: 17

stdin: Could you tell me which IC50 is on file for C=CC(=O)Nc1ccc(C(=O)N2CC[C@H](n3cc(-c4cc(OC)c5c(C#N)cnn5c4)cn3)C2)c(C)c1 [Example 68] ?
stdout: 4

stdin: Could you tell me which IC50 is on file for C=CC(=O)N1CC[C@H](C(=O)N2CC[C@@H](n3cc(-c4cc(OC)c5c(C#N)cnn5c4)cn3)C2)C1 [Example 57] ?
stdout: 7

stdin: Could you tell me which IC50 is on file for C=CC(=O)N1CCC(C(=O)N2CCC(n3cc(-c4cc(OC)c5c(C#N)cnn5c4)cn3)CC2)C(F)(F)C1 (stereo not shown) [Example 15] ?
stdout: 2

stdin: Could you tell me which IC50 is on file for COc1cc(-c2cnn(C3CCN(C(=O)C4CN(C(=O)/C=C/CCl)C4)CC3)c2)cn2ncc(C#N)c12 [Example 181] ?
stdout: 2

stdin: Could you tell me which IC50 is on file for C=CC(=O)N1CC(C(=O)N2C3CC2CN(c2ccc(-c4cc(OC)c5c(C#N)cnn5c4)cn2)C3)C1 [Example 52] ?
stdout: 14

stdin: Could you tell me which IC50 is on file for C=CC(=O)N1CC[C@@H](C(=O)N2CC[C@H](n3cc(-c4cc(OC)c5c(C#N)cnn5c4)cn3)C2)C1 [Example 72] ?
stdout: 5

stdin: Could you tell me which IC50 is on file for COc1cc(-c2cnn(C3CN(C(=O)C4(F)CN(C(=O)/C=C/CN(C)C)C4)C3)c2C)cn2ncc(C#N)c12 [Example 160] ?
stdout: 179

stdin: Could you tell me which IC50 is on file for COc1cc(-c2cnn(C3CCN(C(=O)C4CN(C(=O)/C=C/CN5CC[C@H](F)C5)C4)CC3)c2)cn2ncc(C#N)c12 [Example 182] ?
stdout: 3

stdin: Could you tell me which IC50 is on file for C=CC(=O)Nc1ccc(C(=O)N2CCC(n3cc(-c4cc(OC)c5c(C#N)cnn5c4)cn3)CC2)cc1 [Example 177] ?
stdout: 4

stdin: Could you tell me which IC50 is on file for C=CC(=O)N1CC(C)(C(=O)N2CCC(n3cc(-c4cc(OC)c5c(C#N)cnn5c4)cn3)CC2)C1 [Example 38] ?
stdout: 3

stdin: Could you tell me which IC50 is on file for C=CC(=O)N1CC(CN2C[C@H]3C[C@@H]2CN3c2ccc(-c3cc(OC)c4c(C#N)cnn4c3)cn2)C1 [Example 108] ?
stdout: 7

stdin: Could you tell me which IC50 is on file for COc1cc(-c2cnn(C3CCN(C(=O)C4CN(C(=O)/C=C/CN5CCOCC5)C4)CC3)c2)cn2ncc(C#N)c12 [Example 184] ?
stdout: 4

stdin: Could you tell me which IC50 is on file for C=CC(=O)N1C2COCC1CN(C(=O)N1CCC(n3cc(-c4cc(OC)c5c(C#N)cnn5c4)cn3)CC1)C2 [Example 3] ?
stdout: 5

stdin: Could you tell me which IC50 is on file for C=CC(=O)N1CC(C#N)(C(=O)N2CCC(n3cc(-c4cc(OC)c5c(C#N)cnn5c4)cn3)CC2)C1 [Example 39] ?
stdout: 5

stdin: Could you tell me which IC50 is on file for C=CC(=O)Nc1ccc(C(=O)N2CC[C@H](n3cc(-c4cc(OC)c5c(C#N)cnn5c4)cn3)C2)c(OC)c1 [Example 69] ?
stdout: 6

stdin: Could you tell me which IC50 is on file for C=CC(=O)N1CC(C(=O)N2C[C@@H]3C[C@H]2CN3c2ccc(-c3cc(OC)c4c(C#N)cnn4c3)cn2)C1 [Example 106] ?
stdout: 11

stdin: Could you tell me which IC50 is on file for COc1cc(-c2cnn(C3CCN(C(=O)C4CN(C(=O)/C=C/CO)C4)CC3)c2)cn2ncc(C#N)c12 [Example 141] ?
stdout: 5

stdin: Could you tell me which IC50 is on file for C=CC(=O)N1CCC(C#N)(C(=O)N2CCC(n3cc(-c4cc(OC)c5c(C#N)cnn5c4)cn3)CC2)CC1 [Example 14] ?
stdout: 3

stdin: Could you tell me which IC50 is on file for C=CC(=O)N1CC(C(=O)N2CC3CCC(C2)N3c2ccc(-c3cc(OC)c4c(C#N)cnn4c3)cn2)C1 [Example 51] ?
stdout: 9

stdin: Could you tell me which IC50 is on file for C=CC(=O)Nc1cccc(C(=O)N2CC[C@@H](n3cc(-c4cc(OC)c5c(C#N)cnn5c4)cn3)C2)c1 [Example 56] ?
stdout: 8

stdin: Could you tell me which IC50 is on file for C=CC(=O)N1CC[C@H](C(=O)N2CCC(n3cc(-c4cc(OC)c5c(C#N)cnn5c4)cn3)CC2)C1 [Example 28] ?
stdout: 5

stdin: Could you tell me which IC50 is on file for C=CC(=O)N1CC(C(=O)N2CCC(n3cc(-c4cc(OC)c5c(Cl)cnn5c4)cn3)CC2)C1 [Example 122] ?
stdout: 12

stdin: Could you tell me which IC50 is on file for C=CC(=O)N1CC(CN2CCC(n3ncc(-c4cc(OC)c5c(C#N)cnn5c4)c3C)CC2)(OC)C1 [Example 91] ?
stdout: 99

stdin: Could you tell me which IC50 is on file for C=CC(=O)N1CC(C(=O)N2CCC(n3ncc(-c4cc(OC)c5c(C#N)cnn5c4)c3C)CC2)C1 [Example 84] ?
stdout: 15

stdin: Could you tell me which IC50 is on file for C=CC(=O)N[C@H]1C[C@@H](C(=O)N2CCC(n3cc(-c4cc(OC)c5c(C#N)cnn5c4)cn3)CC2)C1 [Example 44] ?
stdout: 3

stdin: Could you tell me which IC50 is on file for C=CC(=O)N1CCC(C(=O)N2CCN(c3ccc(-c4cc(OC)c5c(C#N)cnn5c4)cn3)CC2)CC1 [Example 109] ?
stdout: 4

====

So I've got a bunch of compounds here, and I need their pIC50 values.
# assay.system: HEK-293 cells transfected with dox-inducible human wild type FGFR3 (Homo sapiens (Human))
# Sequence (P22607 23-806): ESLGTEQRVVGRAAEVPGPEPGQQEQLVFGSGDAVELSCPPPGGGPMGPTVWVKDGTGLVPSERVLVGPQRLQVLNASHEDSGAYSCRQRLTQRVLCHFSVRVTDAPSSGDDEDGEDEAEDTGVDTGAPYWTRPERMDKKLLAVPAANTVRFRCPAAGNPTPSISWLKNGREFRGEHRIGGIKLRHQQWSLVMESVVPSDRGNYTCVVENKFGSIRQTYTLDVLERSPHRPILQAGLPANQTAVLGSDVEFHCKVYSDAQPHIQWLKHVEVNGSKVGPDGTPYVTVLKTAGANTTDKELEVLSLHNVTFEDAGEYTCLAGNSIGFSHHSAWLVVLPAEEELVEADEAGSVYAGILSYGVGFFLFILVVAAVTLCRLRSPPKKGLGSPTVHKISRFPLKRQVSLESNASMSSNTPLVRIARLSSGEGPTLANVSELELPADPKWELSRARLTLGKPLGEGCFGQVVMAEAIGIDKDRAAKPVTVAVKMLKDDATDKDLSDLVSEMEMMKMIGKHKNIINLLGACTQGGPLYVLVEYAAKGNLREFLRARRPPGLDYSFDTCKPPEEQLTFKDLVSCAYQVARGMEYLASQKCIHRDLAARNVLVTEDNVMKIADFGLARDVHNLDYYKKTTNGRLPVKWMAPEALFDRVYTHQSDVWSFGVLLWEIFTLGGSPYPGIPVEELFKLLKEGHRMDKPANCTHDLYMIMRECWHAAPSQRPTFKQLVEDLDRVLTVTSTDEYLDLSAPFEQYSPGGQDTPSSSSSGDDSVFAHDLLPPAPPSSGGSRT
# protocol: FGFR3 pFGFR cell assay (ELISA)
# Format: cell-based
# condition.set: HEK-293 dox-inducible FGFR3, 1 hour compound, 100 ng/ml FGF-acidic
# Protocol: FGFR3 pFGFR Cell Assay: • HEK-293 cells transfected with dox-inducible human wild type FGFR3 (SEQ ID NO: 5) were plated in a collagen or poly-D-lysine coated 96 well flat bottom plates at 4×10^5 cells/well in complete DMEM medium containing 10% FBS and 1 μg/ml doxycycline and allowed to attach for 24 h at 37° C., 5% CO2. […] Phospho FGFR3 was measured by ELISA (R&D Systems cat DYC2719). […] Optical density was measured for each well using a Versamax reader at a wavelength of 450 nm. […]
Please keep in mind that pIC50 is minus log10 of the molar concentration; only the number is needed.

stdin: Could you tell me which pIC50 is on file for C=CC(=O)N(C)c1ccc(C(=O)N2CCC(n3cc(-c4cc(OC)c5c(C#N)cnn5c4)cn3)CC2)cc1 ?
stdout: 7.36

stdin: Could you tell me which pIC50 is on file for C=CC(=O)N1CC(C(=O)N2CCC(n3cc(-c4cc(-c5ccc(NC(=O)C6CC6)cc5F)c5c(C#N)cnn5c4)cn3)CC2)C1 ?
stdout: 6.53

stdin: Could you tell me which pIC50 is on file for C=CC(=O)N1CC(S(=O)(=O)N2CCC(n3cc(-c4cc(OC)c5c(C#N)cnn5c4)cn3)CC2)C1 ?
stdout: 7.92

stdin: Could you tell me which pIC50 is on file for C=CS(=O)(=O)N1CC[C@@H](C(=O)N2CCC(n3cc(-c4cc(OC)c5c(C#N)cnn5c4)cn3)CC2)C1 ?
stdout: 7.92
